Kindly supply the reported Percent (%) root growth of seedlings in relation to control on 9th day after sowing values for the records listed here.
System: Vigna radiata
Assay: Seed germination and seedling shoot/root growth test in petridishes
Assay type: in vivo
Conditions: Vigna radiata; 0.001 μM; control = 100%

// below: answered compounds
compound: CC1(C)OCC2(CC34CCC5C(C)(C)C(=O)CCC5(C)C3CCC2C4)O1 (stereo not drawn) [Isopropylideno Calliterpenone]
result: 91%
--
compound: C=C1C[C@]23C[C@@]1(O)CC[C@H]2[C@@]12C=C[C@H](O)[C@@](C)(C(=O)O1)[C@H]2[C@@H]3C(=O)O [GA3, Gibberellic acid, reference compound]
result: 102%
--
compound: CC1(C)C(=O)CC[C@@]2(C)[C@H]1CC[C@@]13C[C@H](CC[C@@H]12)[C@@](O)(CO)C3 [Calliterpenone, 16α, 17 dihydroxy phyllocladan-3 one]
result: 87%
--
compound: CC1(C)C(O)CCC2(C)C3CCC4CC3(CCC12)CC4(O)CO (stereo not drawn) [Trihydroxy Phyllocladane, 30β, 16α, 17. trihydroxy phyllocladane]
result: 100%
--
compound: CC(=O)OCC1(OC(C)=O)CC23CCC4C(C)(C)C(=O)CCC4(C)C2CCC1C3 (stereo not drawn) [Calliterpenone Diacetate, calliterpenone diacetate]
result: 91%

Turning now to a further record.
Percent (%) root growth of seedlings in relation to control on 9th day after sowing for CC(=O)OCC1(O)CC23CCC4C(C)(C)C(=O)CCC4(C)C2CCC1C3 (stereo not drawn) [Calliterpenone Monoacetate, calliterpenone monoacetate] is 104%

====

Kindly supply the reported Percent (%) shoot growth of seedlings in relation to control on 9th day after sowing values for the records listed here.
System: Triticum aestivum
Assay: Seed germination and seedling shoot/root growth test in petridishes
Format: in vivo
Settings: 0.01 μM, control = 100%
Answers are plain numbers, in %.

// below: answered compounds
compound: C=C1C[C@]23C[C@@]1(O)CC[C@H]2[C@@]12C=C[C@H](O)[C@@](C)(C(=O)O1)[C@H]2[C@@H]3C(=O)O [GA3, Gibberellic acid, reference compound]
numeric_value: 115
--
compound: CC(=O)OCC1(OC(C)=O)CC23CCC4C(C)(C)C(=O)CCC4(C)C2CCC1C3 (stereo not drawn) [Calliterpenone Diacetate, calliterpenone diacetate]
numeric_value: 106
--
compound: CC(=O)OCC1(O)CC23CCC4C(C)(C)C(=O)CCC4(C)C2CCC1C3 (stereo not drawn) [Calliterpenone Monoacetate, calliterpenone monoacetate]
numeric_value: 107

Each compound below has a recorded value; state its Percent (%) shoot growth of seedlings in relation to control on 9th day after sowing.
1. CC1(C)OCC2(CC34CCC5C(C)(C)C(=O)CCC5(C)C3CCC2C4)O1 (stereo not drawn)
2. CC1(C)C(=O)CC[C@@]2(C)[C@H]1CC[C@@]13C[C@H](CC[C@@H]12)[C@@](O)(CO)C3 [Calliterpenone, 16α, 17 dihydroxy phyllocladan-3 one]
3. CC1(C)C(O)CCC2(C)C3CCC4CC3(CCC12)CC4(O)CO (stereo not drawn) [Trihydroxy Phyllocladane, 30β, 16α, 17. trihydroxy phyllocladane]

103
100
112

====

Kindly supply the reported Percent (%) root growth of seedlings in relation to control on 9th day after sowing values for the records listed here.
System: Trigonella foenum-graecum
Assay: Seed germination and seedling shoot/root growth test in petridishes
Format: in vivo
Details: Trigonella foenum graecum; 0.1 μM; control = 100%
One number for each entry, in %.

// below: answered molecules
molecule: CC1(C)C(=O)CC[C@@]2(C)[C@H]1CC[C@@]13C[C@H](CC[C@@H]12)[C@@](O)(CO)C3 [Calliterpenone, 16α, 17 dihydroxy phyllocladan-3 one]
numeric_value: 150
//
molecule: CC(=O)OCC1(OC(C)=O)CC23CCC4C(C)(C)C(=O)CCC4(C)C2CCC1C3 (stereo not drawn) [Calliterpenone Diacetate, calliterpenone diacetate]
numeric_value: 95
//
molecule: C=C1C[C@]23C[C@@]1(O)CC[C@H]2[C@@]12C=C[C@H](O)[C@@](C)(C(=O)O1)[C@H]2[C@@H]3C(=O)O [GA3, Gibberellic acid, reference compound]
numeric_value: 45
//
molecule: CC(=O)OCC1(O)CC23CCC4C(C)(C)C(=O)CCC4(C)C2CCC1C3 (stereo not drawn) [Calliterpenone Monoacetate, calliterpenone monoacetate]
numeric_value: 81
//
molecule: CC1(C)OCC2(CC34CCC5C(C)(C)C(=O)CCC5(C)C3CCC2C4)O1 (stereo not drawn)
numeric_value: 91

Turning now to a further record.
Percent (%) root growth of seedlings in relation to control on 9th day after sowing for CC1(C)C(O)CCC2(C)C3CCC4CC3(CCC12)CC4(O)CO (stereo not drawn) [Trihydroxy Phyllocladane, 30β, 16α, 17. trihydroxy phyllocladane] is 82
